- Test system: Human endocervival adenocarcinoma (KB3.1)
- assay.text: cells
- Type: cell-based
- run.parameters: KB3.1; serial dilution in 96-well plates; read-out: IC50
pIC50: −log10 of the molar value.
pIC50 overview
assay.endpoint: pIC50

compound="CCCC[C@H](C)[C@@H]1CC(=O)N[C@@H](C(C)C)C(=O)N[C@@H](C)C(=O)N[C@H](CC(C)C)C(=O)O1 [Compound 5, beauveriolide M]" assay_endpoint=pIC50 reported_result="< 4.44"
compound="CCCC[C@H](C)[C@@H]1CC(=O)N[C@@H](C)C(=O)N[C@@H](C)C(=O)N[C@H](CC(C)C)C(=O)O1 [Compound 3, Beauveriolide S]" assay_endpoint=pIC50 reported_result="< 4.44"
